Sourced from PubChem BioAssay AID1259415

- experimentNotes: qHTS Assay for inhibitors of the human cytomegalovirus (HCMV); also: % is scaled to controls: 0 for no effect and ±100 for the full control effect
- testParameters: HFF cells, HCMV-luciferase reporter, 72 h; at 57.5 µM; active compounds read low
Out of some 410,000 compounds screened, about 18,000 (4.4%) were called active. About 7% were inconclusive and are not listed. The sample as a whole holds a higher share of actives than the screen did.
The following compounds are listed with their measured activity change, negative = inhibition values.

{"compound": "CC(=O)c1cccc(NC(=O)CSc2nc3c(c(=O)[nH]2)CCC3)c1", "unitString": "%", "activity change, negative = inhibition": -2.89}
{"compound": "N#Cc1ccc(CSc2nnc3ccccn23)cc1", "unitString": "%", "activity change, negative = inhibition": -25.8}
{"compound": "COCCNC(=O)c1ccc2c(c1)N=C(C)c1cc(C)ccc1S2", "unitString": "%", "activity change, negative = inhibition": -83.7}
{"compound": "O=S(=O)(NCC(c1ccco1)N1CCOCC1)c1cc(F)ccc1F (configuration not stated)", "unitString": "%", "activity change, negative = inhibition": 10.6}
{"compound": "COCCNC(=O)c1ccc2c(c1)ncn2-c1ccc(C)c(Cl)c1", "unitString": "%", "activity change, negative = inhibition": 52.5}
{"compound": "Cc1ccc(C(=O)Nc2nc(-c3ccccc3)ns2)cc1", "unitString": "%", "activity change, negative = inhibition": 27}
{"compound": "COc1ccc2[nH]c3c(c2c1)CCN(C(=O)CCC1CCCC1)C3c1ccc(F)cc1 (configuration not stated)", "unitString": "%", "activity change, negative = inhibition": -81.8}
{"compound": "CCC1=Nc2cc(C(=O)NCCCOC(C)C)ccc2Sc2ccc(C)cc21", "unitString": "%", "activity change, negative = inhibition": -62.8}
{"compound": "CCc1cc2c(cc3c(=O)n(CC(=O)N4CCN(c5cc(Cl)ccc5C)CC4)ncn32)s1", "unitString": "%", "activity change, negative = inhibition": 85.8}
{"compound": "CC1=Nc2cc(C(=O)NCc3ccc(C)cc3)ccc2Sc2ccc(Cl)cc21", "unitString": "%", "activity change, negative = inhibition": -34.6}
{"compound": "CCOc1cccc(CC(=O)N2CCc3c([nH]c4ccccc34)C2c2ccc(OC)cc2)c1OCC (configuration not stated)", "unitString": "%", "activity change, negative = inhibition": 31.4}
{"compound": "Cc1nonc1C1CCCN1C(=O)c1cc(COc2cccc(C(F)(F)F)c2)on1 (configuration not stated)", "unitString": "%", "activity change, negative = inhibition": 10.6}
{"compound": "Cc1ccc(-n2c(C)nnc2SCC(=O)NC2CC2)cc1", "unitString": "%", "activity change, negative = inhibition": 17.2}
{"compound": "CSc1nsc(NC(=O)Nc2ccccc2)n1", "unitString": "%", "activity change, negative = inhibition": -76.6}
{"compound": "CCc1ccc(Sc2cc(C(=O)NCCCOC(C)C)c3ccccc3n2)cc1", "unitString": "%", "activity change, negative = inhibition": -34.7}
{"compound": "CC(=O)Nc1ccc(-c2csc(NC(=O)Nc3ccccc3)n2)cc1", "unitString": "%", "activity change, negative = inhibition": -99.1}
{"compound": "CCSc1nsc(NC(=O)Nc2cccc(C(C)=O)c2)n1", "unitString": "%", "activity change, negative = inhibition": -74.9}
{"compound": "CCOC(=O)c1c(S(=O)(=O)N2CCC(C(=O)NCc3ccccc3OC)CC2)c(C)n(C)c1C", "unitString": "%", "activity change, negative = inhibition": 9.09}
{"compound": "COC(=O)c1ccccc1NC(=O)c1cc(-c2ccccc2O)no1", "unitString": "%", "activity change, negative = inhibition": -14.2}
{"compound": "CCOc1cccc(CC(=O)N2CCc3c([nH]c4ccccc34)C2c2ccc(F)cc2)c1OCC (configuration not stated)", "unitString": "%", "activity change, negative = inhibition": -33.4}
{"compound": "CC(=O)N1CCc2cc(Br)cc(S(=O)(=O)CCC(=O)NCCc3ccc(Cl)cc3)c21", "unitString": "%", "activity change, negative = inhibition": -23.8}
{"compound": "COc1ccc(C(=O)CSc2c(C(C)C)cnc3c2c(=O)n(C)c(=O)n3C)cc1", "unitString": "%", "activity change, negative = inhibition": 8.98}
